Data provenance is PubChem BioAssay (NCI).

- System: COLO 205 colon
- assay.overview: NCI tumour cell line growth inhibition, 48 h
Each entry below carries its reported TGI.
property.measured: TGI

| molecule | property.measured | value.observed |
| --- | --- | --- |
| C=C1C(=O)O[C@H]2[C@H]1CC/C(Cn1cc(Cc3c[nH]c4ccccc34)nn1)=C\CC[C@@]1(C)O[C@@H]21 | TGI | 3.75 µM |
| O=c1cc(-c2ccccc2)oc2ccc(OC/C(=N/O)c3ccc(F)cc3)cc12 | TGI | 8.19 µM |
| O=C1C=CC(=O)C2C1Cc1ccccc1C2c1ccccc1 (stereo not drawn) | TGI | 35.5 µM |
| Oc1cc(Cl)cc2cc(Cl)cnc12 | TGI | > 100 µM |
| Cc1c(NC(=O)CCl)c(=O)oc2c(C)c3occc(=O)c3cc12 | TGI | 40 µM |
| Cc1cc2c(cc1C)[n+](=O)c(C(=O)/C=C/c1ccc3c(c1)OCO3)c(C)n2[O-] | TGI | > 100 µM |
| COc1ccc(C2S/C(=C\c3cccc(OC)c3)C(=O)N2NC(=O)Cc2ccccc2)cc1 (stereo not drawn) | TGI | > 100 µM |
| C=C1C2C[C@@H]3OC4CC5O[C@]6(CC5OC4C(C)C3OC(=O)CC3CC[C@@H]4OC5C7OC8C[C@](CCC9CC(=C)[C@H](CCC(C[C@H]1C)O2)O9)(OC7C4O3)O[C@@H]85)C[C@@H]1O[C@@]2(CC(C)[C@@H]3OC(CC(=O)CCO)C(O)C[C@@H]3O2)CC(C)[C@@H]1O6 (stereo partly drawn) | TGI | < 0.001 µM |

---

- Tested on: 786-0 renal
- assay.overview: NCI tumour cell line growth inhibition, 48 h

| compound | TGI |
| --- | --- |
| COc1ccc2c3c(c(C(=O)O)oc13)CCC2 | > 100 µM |
| COc1ccc(-c2nsc3c2NC(=O)CC3c2ccc3c(c2)OCCO3)cc1 (configuration not stated) | > 100 µM |
| C#CCN(N=O)C(=O)NCCCCC(NC(=O)OCc1ccccc1)C(=O)OCc1ccccc1 (configuration not stated) | > 100 µM |
| CCC[CH2][Sn]([CH2]CCC)([CH2]CCC)[O]C(=O)C(OC(C)=O)c1ccccc1 (configuration not stated) | 0.295 µM |
| CC(C)NCC(O)c1ccc(O)c2ncccc12 (configuration not stated) | > 100 µM |
| CC(C)(C)c1cc(C(=O)C2Cc3ccccc3C(=O)O2)cc(C(C)(C)C)c1O (configuration not stated) | 24.8 µM |
| Cc1nc2ccccc2c(=O)n1NC(=O)c1ccccc1[N+](=O)[O-] | > 100 µM |
| CCCCC[C@H]1CC=C2C(=O)C=C[C@@H]2CC=CCCCC(=O)O[C@@H](CCCCC)CC=C2C(=O)C=C[C@@H]2CC=CCCCC(=O)O[C@@H](CCCCC)CC=C2C(=O)C=C[C@@H]2CC=CCCCC(=O)O1 | 1.43 µM |
| Nc1ncnc2c1c(-c1ccc(Oc3ccccc3)cc1)nn2C[C@H]1SSC[C@@H]1O | 12 µM |
| Cc1nc(N)sc1C(=O)Nc1ncn[nH]1 | > 100 µM |
| COc1ccc(C(C#N)=C2C=CC(=NO)C=C2)cc1 | 15.3 µM |
| CSc1c2c(C)n[nH]c2nn1-c1ccccc1 | > 100 µM |
| COC(NC(N)=O)C(=O)O (configuration not stated) | > 100 µM |
| Brc1c2nc3ccccc3nc2n2ccc3ccccc3c12 | > 100 µM |
| C/C(=N/NC(=S)N(C)C)c1ccccc1O | > 100 µM |
| N=c1n(CC(=O)NC23CC4CC(CC(C4)C2)C3)c2ccccc2n1CC(=O)NC12CC3CC(CC(C3)C1)C2 | 3.19 µM |
| N/C(=N\S(=O)(=O)c1ccc(-c2ccccn2)s1)Nc1ccc(Cl)cc1 | 29.4 µM |
| Cc1cc2c(c3nocc13)C(=O)c1ccccc1C2=O | > 100 µM |
| O=C1Nc2ccccc2/C1=C\c1cccc(/C=C2/C(=O)Nc3ccccc32)n1 | 2.49 µM |
| C/C(=N\NC(=O)CC#N)C(CN1CCCCC1)C(c1ccccc1)c1c(O)c2ccccc2oc1=O (configuration not stated) | > 100 µM |
| O=C1C=CC(=O)C2C1Cc1ccccc1C2c1ccccc1 (configuration not stated) | > 100 µM |
| CC(CN1CC(=O)NC(=O)C1)N1CC(=O)NC(=O)C1 (configuration not stated) | > 750 µM |
| CCn1c(-c2c(Cl)cc(O)cc2Cl)cc2c(Cl)cc(O)cc21 | 24.8 µM |
| CCNC(=O)NNc1ncnc2c1c(-c1ccc(Cl)cc1)cn2-c1ccc(C)cc1 | 32.8 µM |
| Clc1ccc2nc3n[nH]c(Cl)c3nc2c1 | > 100 µM |
| O=C(N/C(=C\c1c(O)ccc2ccccc12)c1nc2ccccc2[nH]1)c1ccccc1 | > 100 µM |
| O=C(/C=C/c1ccc(OCc2ccccc2)cc1)NCc1ccc(C(=O)NCc2ccccc2)cc1 | > 100 µM |
| O=c1/c(=C/c2c(O)ccc3ccccc23)sc2nc3ccccc3n12 | > 100 µM |
| CCCCCCCCCC(O)CC(=O)c1c(O)cccc1O (configuration not stated) | 50.4 µM |
| Cc1ccc(-c2c(C#N)[n+](=O)c3cc(F)c(F)cc3n2[O-])cc1 | 3.53 µM |
| N/C(=N\NC(=O)c1nc2ccccc2s1)c1ccccn1 | 22.9 µM |
| Cc1c(OCCCOc2ccc3c(=O)cc(-c4ccccc4)oc3c2C)ccc2c(=O)cc(-c3ccccc3)oc12 | > 100 µM |
| O=c1c(Nc2ccccc2)cn(CCOc2ccc(Cl)cc2)c(=O)n1CCOc1ccc(Cl)cc1 | > 100 µM |
| O=C1CSC(c2ccc(-c3nc4ccccc4[nH]3)cc2)=N1 | > 50 µM |
| C=CCOC(=O)c1c(C)n([O-])c2cc(Cl)c(Cl)cc2[n+]1=O | 60.1 µM |
| CC(C)=O.O=C([O-])C(F)(F)F.O=C([O-])C(F)(F)F.O=C([O-])C(F)(F)F.O=C([O-])C(F)(F)F.[Rh+2].[Rh+2] | > 100 µM |
| O=C(O)C1CCN(Cc2oc(CO)cc(=O)c2O)C1 (configuration not stated) | > 100 µM |

---

- Tested on: 786-0 renal
- assay.overview: NCI tumour cell line growth inhibition, 48 h

| compound | GI50 |
| --- | --- |
| COc1cc(OC)cc(-c2nc3sccn3c2/C=N/N=C(N)N)c1 | 7.71 µM |
| O=C1OCC(c2ccc(O)cc2)=C1c1cc(O)c(O)c(O)c1 | 62.5 µM |
| Oc1[nH]c(N=C2N=c3ccccc3=N2)c2ccccc12 | 17.2 µM |
| C[C@]12CC[C@@H]3c4ccc(O)cc4CC[C@H]3[C@@H]1CC[C@@H]2NS(=O)(=O)c1cccc(Cl)c1 | 2.47 µM |
| Cc1ccc2[nH]c3c(c2c1)N=c1ccccc1=NO3 | 35 µM |
| CC(=Nc1ccccc1)C1=C(O)C(Cc2cccc(F)c2)NC1=O (stereo not given) | 0.0857 µM |
| CC/C=C\C[C@H](O)C/C=C1/C(=O)C=C[C@@H]1C/C=C\CCCC(=O)OC(C)C | 1.9 µM |
| COC12C=C/C(=C(/C(=O)OCCSc3ccnn3C)C(=O)CCCCCCCCC3(OC)C=C/C(=C(/C(=O)OCCSc4ccnn4C)C(=O)CCCCCCCC1)O3)O2 | 1.07 µM |
| Clc1ccccc1[C@@H]1C[C@@H]2Cc3cc(Br)c4ccccc4c3N1O2 | 5.2 µM |
| CC(=O)O[C@@]12CO[C@@H]1C[C@H](O)[C@@]1(C)C(=O)[C@H](O)C3=C(C)[C@@H](OC(=O)[C@H](O)[C@@H](NC(=O)OC(C)(C)C)c4ccccc4)C[C@@](O)([C@@H](OC(=O)c4ccccc4)C12)C3(C)C (stereo not given in full) | 0.00549 µM |

---

- System: OVCAR-5 ovarian
- assay.overview: NCI tumour cell line growth inhibition, 48 h
property.measured: TGI

| compound | target.or.test.system | property.measured | value.observed |
| --- | --- | --- | --- |
| CCNC(=O)NNc1ncnc2c1c(-c1ccc(Cl)cc1)cn2-c1ccc(C)cc1 | OVCAR-5 ovarian | TGI | 33.5 µM |
| N=S(=O)(c1ccccc1)c1ccccc1 | OVCAR-5 ovarian | TGI | > 100 µM |
| C=CC(C)(C)C1(CC(OC)OC)C(=O)N(C)c2ccccc21 (stereo not drawn) | OVCAR-5 ovarian | TGI | > 25 µM |
| O=C1OC(c2ccccc2)(c2ccccc2)c2ccc3ccc(F)cc3c21 | OVCAR-5 ovarian | TGI | > 100 µM |
| N#CCCN(CCC#N)c1ccc(/C=C2\SC(=S)NC2=O)cc1 | OVCAR-5 ovarian | TGI | > 100 µM |
| CC(C(=O)NCCNC(=O)CCC(=O)N(C)O)C(=O)NCCNC(=O)CCC(=O)N(C)O | OVCAR-5 ovarian | TGI | > 100 µM |
| C/C(=N/NC(=S)N(C)C)c1ccccc1O | OVCAR-5 ovarian | TGI | > 100 µM |
| CN(C)CCNC(=O)c1cccc2nc3ccc4cccnc4c3nc12 | OVCAR-5 ovarian | TGI | 2.67 µM |
| Oc1cc(O)c2c(c1)O[C@H](c1cc(O)c(O)c(O)c1)[C@@H](O)C2 | OVCAR-5 ovarian | TGI | 34.8 µM |
| O=c1cc(-c2ccccc2)oc2ccc(OC/C(=N/O)c3ccc(F)cc3)cc12 | OVCAR-5 ovarian | TGI | > 50 µM |
| N#C/C(=C/n1c(=S)[nH]c2ccccc21)C(N)=O | OVCAR-5 ovarian | TGI | > 100 µM |
| COc1ccc(C2S/C(=C\c3cccc(OC)c3)C(=O)N2NC(=O)Cc2ccccc2)cc1 (stereo not drawn) | OVCAR-5 ovarian | TGI | > 100 µM |
| CC(CN(C)C)S(=O)(=O)c1ccc(-c2cnc(N)c(C(=O)Nc3ccccc3)n2)cc1 (stereo not drawn) | OVCAR-5 ovarian | TGI | 34.5 µM |
| Cc1ccc(S(=O)(=O)/N=C2/N(C)CCCS2(=O)=O)cc1 | OVCAR-5 ovarian | TGI | > 100 µM |
| C[C@@H](NC(=O)[C@@H]1C[C@]1(C)CO)c1cccc2ccccc12 | OVCAR-5 ovarian | TGI | > 100 µM |
| CC(C)(CN1CCOCC1)C(=O)/C=C/c1ccc(/C=C/C(=O)C(C)(C)CN2CCOCC2)cc1 | OVCAR-5 ovarian | TGI | 3.26 µM |
| O=C(O)C1CCN(Cc2oc(CO)cc(=O)c2O)C1 (stereo not drawn) | OVCAR-5 ovarian | TGI | > 100 µM |
| CC(=O)NNC(=S)/N=C\c1c(O)c2ccccc2oc1=O | OVCAR-5 ovarian | TGI | > 100 µM |
| Clc1ccccc1[C@@H]1C[C@@H]2Cc3cc(Br)c4ccccc4c3N1O2 | OVCAR-5 ovarian | TGI | > 100 µM |
| NC(=O)COc1c(Br)cc(Br)cc1Br | OVCAR-5 ovarian | TGI | > 100 µM |
| O=C(O)CNc1ccc(Cl)c(Cl)c1 | OVCAR-5 ovarian | TGI | > 100 µM |
| CCn1c(-c2ccc(OC)cc2)nc2c1C(=O)c1ccccc1C2=O | OVCAR-5 ovarian | TGI | > 100 µM |
| Cn1c(=O)c2c(nc3n2CCC(=O)N3CCCCl)n(C)c1=O | OVCAR-5 ovarian | TGI | > 100 µM |
